The origin of these recorded values is patent EP0097439A2.

Experiment: Plasma levels of 9-deoxo-16,16-dimethyl-9-methylene-PGE2 by radioimmunoassay after insertion of a suppository
Assay type: in vivo, Rhesus monkeys (Macaca mulatta)
Conditions: rhesus monkey, plasma, 30 mg, plasma; Monkey #16; 24 Hours; 30 mg Potassium Salt in H15 Plus 2% CSD + 10% Triacetin Suppositories; read-out: Drug Levels
Description: A. Midtrimester pregnant female Rhesus monkeys (Macaca mulatta) are used. […] D. The plasma levels of 9-deoxo-16,16-d1methy1-9-methy1ene-PGE2 in monkeys treated with 6 formulations containing either 9-deoxo-16,16-dimethyl-9-methylene-PGE2 free acid or potassium salt are shown in Tables 1-6. In general, higher blood levels are measured in pregnant Rhesus monkeys than in non-pregnant monkeys.
Where a name gives a salt, the structure may show the parent alone.
Recorded Endpoint: concentration at 24 h

// query concentration at 24 h value for entry C=C1C[C@@H](O)[C@H](/C=C/[C@@H](O)C(C)(C)CCCC)[C@H]1C/C=C\CCCC(=O)O [Potassium Salt] 14.2 ng/mL

###

Assay: Plasma levels of 9-deoxo-16,16-dimethyl-9-methylene-PGE2 by radioimmunoassay after insertion of a suppository
Format: in vivo, Rhesus monkeys (Macaca mulatta)
Conditions: rhesus monkey, plasma, 30 mg, plasma; Monkey #15 (pregnant animal with uterine recording); 0.5 Hours; 30 mg Free Acid in H15 Plus 2% CSD + 10% Triacetin Suppositories; read-out: Drug Levels
Recorded Endpoint: concentration at 0.5 h
Dear colleague, please send the value followed by its unit.

Which concentration at 0.5 h is listed for C=C1C[C@@H](O)[C@H](/C=C/[C@@H](O)C(C)(C)CCCC)[C@H]1C/C=C\CCCC(=O)O [Free Acid, 9-deoxo-16,16-dimethyl-9-methylene-PGE2] ? 154 ng/mL

###

Test: Plasma levels of 9-deoxo-16,16-dimethyl-9-methylene-PGE2 by radioimmunoassay after insertion of a suppository
Format: in vivo, Rhesus monkeys (Macaca mulatta)
Details: rhesus monkey, plasma, 30 mg, plasma; Monkey #11; 1 Hours; 30 mg Potassium Salt in H15 Plus 2% CSD Suppositories; read-out: Drug Levels
Where a name gives a salt, the structure may show the parent alone.
Recorded Endpoint: concentration at 1 h (ng/mL)
Give bare numbers, in ng/mL.

What concentration at 1 h value was documented for this compound, C=C1C[C@@H](O)[C@H](/C=C/[C@@H](O)C(C)(C)CCCC)[C@H]1C/C=C\CCCC(=O)O [Potassium Salt] ? 6.61

###

Experiment: Plasma levels of 9-deoxo-16,16-dimethyl-9-methylene-PGE2 by radioimmunoassay after insertion of a suppository
Format: in vivo, Rhesus monkeys (Macaca mulatta)
Conditions: rhesus monkey, plasma, 30 mg, plasma; Monkey #1; 2.0 Hours; 30 mg Free Acid in H15 Suppositories; read-out: Drug Levels
Recorded Endpoint: concentration at 2 h (ng/mL)
Give bare numbers, in ng/mL.

Param item = C=C1C[C@@H](O)[C@H](/C=C/[C@@H](O)C(C)(C)CCCC)[C@H]1C/C=C\CCCC(=O)O [Free Acid, 9-deoxo-16,16-dimethyl-9-methylene-PGE2] ; retrieve measured concentration at 2 h. 4.16

###

Assay: Plasma levels of 9-deoxo-16,16-dimethyl-9-methylene-PGE2 by radioimmunoassay after insertion of a suppository
Type: in vivo, Rhesus monkeys (Macaca mulatta)
Conditions: rhesus monkey, plasma, 30 mg, plasma; Monkey #18; 2 Hours; 30 mg Potassium Salt in H15 Plus 2% CSD + 10% Triacetin Suppositories; read-out: Drug Levels
Where a name gives a salt, the structure may show the parent alone.
Recorded Endpoint: concentration at 2 h

For the molecule C=C1C[C@@H](O)[C@H](/C=C/[C@@H](O)C(C)(C)CCCC)[C@H]1C/C=C\CCCC(=O)O [Potassium Salt] , what concentration at 2 h is on record? 87.2 ng/mL
